system: Escherichia coli; assay: Antibacterial activity against Escherichia coli ATCC25922 assessed as reduction in microbial growth after 24 hrs by broth dilution method; format: functional; conditions: ATCC 25922
reported-metric: MIC (µg/mL)

- compound: "C#Cc1ccc(NC(=O)[C@@H](N)Cc2ccccc2)cc1"
  inequality-sign: "="
  measured-result: 39
- compound: "CC(C)[C@H](N)C(=O)Nc1ccc(Br)cc1"
  inequality-sign: "="
  measured-result: 39
- compound: "Cc1ccc(NC(=O)[C@@H](N)C(C)C)cc1"
  inequality-sign: ">"
  measured-result: 1250
- compound: "C#Cc1ccc(NC(=O)[C@@H](N)C(C)CC)cc1 (stereo partly drawn)"
  inequality-sign: "="
  measured-result: 20
- compound: "C#Cc1ccc(NC(=O)[C@@H](N)CC(C)C)cc1"
  inequality-sign: "="
  measured-result: 10
- compound: "CC(C)[C@H](N)C(=O)Nc1ccccc1"
  inequality-sign: ">"
  measured-result: 1250
- compound: "CCCCCCNC(=O)[C@@H](N)C(C)C"
  inequality-sign: "="
  measured-result: 20
- compound: "C[C@H]1COc2c(N3CCN(C)CC3)c(F)cc3c(=O)c(C(=O)O)cn1c23.C[C@H]1COc2c(N3CCN(C)CC3)c(F)cc3c(=O)c(C(=O)O)cn1c23.O"
  inequality-sign: "="
  measured-result: 2.5
- compound: "CC(C)[C@H](N)C(=O)Nc1ccc(F)cc1"
  inequality-sign: "="
  measured-result: 312
- compound: "C#Cc1cccc(NC(=O)[C@H](N)C(C)C)c1"
  inequality-sign: "="
  measured-result: 39
- compound: "CN[C@H](CC(C)C)C(=O)N[C@H]1C(=O)N[C@@H](CC(N)=O)C(=O)N[C@H]2C(=O)N[C@H]3C(=O)N[C@H](C(=O)N[C@H](C(=O)O)c4cc(O)cc(O)c4-c4cc3ccc4O)[C@H](O)c3ccc(c(Cl)c3)Oc3cc2cc(c3O[C@@H]2O[C@H](CO)[C@@H](O)[C@H](O)[C@H]2O[C@H]2C[C@](C)(N)[C@H](O)[C@H](C)O2)Oc2ccc(cc2Cl)[C@H]1O"
  inequality-sign: "="
  measured-result: 156
- compound: "CC(C)[C@H](N)C(=O)Nc1ccc(I)cc1"
  inequality-sign: "="
  measured-result: 39
- compound: "C#Cc1cccc(NC(=O)[C@@H](N)C(C)C)c1"
  inequality-sign: "="
  measured-result: 10
- compound: "C#Cc1cccc(NC(=O)[C@@H](N)Cc2ccccc2)c1"
  inequality-sign: "="
  measured-result: 39
- compound: "CC(C)[C@H](N)C(=O)Nc1ccc(Cl)cc1"
  inequality-sign: "="
  measured-result: 156
- compound: "CC(C)C(NC(=O)[C@H](N)Cc1ccccc1)C(=O)O (stereo partly drawn)"
  inequality-sign: ">"
  measured-result: 1250
- compound: "C#Cc1ccc(NC(=O)[C@@H](N)C(C)C)cc1"
  inequality-sign: "="
  measured-result: 5
- compound: "C#Cc1ccc(NC(=O)[C@@H](N)Cc2c[nH]c3ccccc23)cc1"
  inequality-sign: "="
  measured-result: 156

----------
test system: Escherichia coli; test: Antibacterial activity against Escherichia coli ATCC25922 assessed as zone of inhibition incubated for 12 hrs by disc diffusion method; assay type: functional, ATCC 25922
Classify by measured diameter of the inhibition zone (DIZ): satisfied if it is equal to or exceeds 10 mm, not satisfied if it is smaller.

- molecule: "C#Cc1ccc(NC(=O)[C@@H](N)CC(C)C)cc1"
  class: "satisfied"
- molecule: "CC(C)[C@H](N)C(=O)Nc1ccc(F)cc1"
  class: "not satisfied"
- molecule: "C#Cc1cccc(NC(=O)[C@@H](N)C(C)C)c1"
  class: "satisfied"
- molecule: "C#Cc1ccc(NC(=O)[C@@H](N)Cc2c[nH]c3ccccc23)cc1"
  class: "not satisfied"
- molecule: "C#Cc1ccc(NC(=O)[C@@H](N)C(C)CC)cc1 (some centres undefined)"
  class: "satisfied"
- molecule: "CC(C)C(NC(=O)[C@H](N)Cc1ccccc1)C(=O)O (some centres undefined)"
  class: "not satisfied"
- molecule: "C#Cc1ccc(NC(=O)[C@@H](N)C(C)C)cc1"
  class: "satisfied"
- molecule: "CCCCCCNC(=O)[C@@H](N)C(C)C"
  class: "satisfied"

----------
Reported selectivity ratio by item:
test: Selectivity index, HC50 for hemolytic activity in rabbit RBC to MIC for antibacterial activity against methicillin-resistant Staphylococcus aureus ATCC 33591; type: toxicity; details: rabbit red blood cells (RBC), read-out: Selectivity Index

- smiles-entry: "C#Cc1cccc(NC(=O)[C@@H](N)Cc2ccccc2)c1"
  selectivity ratio: "> 62.5"
- smiles-entry: "CC(C)[C@H](N)C(=O)Nc1ccc(Br)cc1"
  selectivity ratio: "> 32"
- smiles-entry: "C#Cc1cccc(NC(=O)[C@H](N)C(C)C)c1"
  selectivity ratio: "> 125"
- smiles-entry: "C#Cc1ccc(NC(=O)[C@@H](N)Cc2ccccc2)cc1"
  selectivity ratio: "> 125"
- smiles-entry: "CC(C)[C@H](N)C(=O)Nc1ccc(Cl)cc1"
  selectivity ratio: "> 16"
- smiles-entry: "CC(C)[C@H](N)C(=O)Nc1ccc(F)cc1"
  selectivity ratio: "> 4"
- smiles-entry: "C#Cc1ccc(NC(=O)[C@@H](N)Cc2c[nH]c3ccccc23)cc1"
  selectivity ratio: "> 16"

----------
test system: Staphylococcus aureus; assay: Antibacterial activity against Staphylococcus aureus ATCC 6538 assessed as reduction in microbial growth after 24 hrs by broth dilution method; assay type: functional
Reported MIC by item:

- molecule: "CC(C)[C@H](N)C(=O)Nc1ccc(I)cc1"
  unit-string: "µg/mL"
  inequality-sign: "="
  MIC: 20
- molecule: "CC(C)C(NC(=O)[C@H](N)Cc1ccccc1)C(=O)O (stereo not given in full)"
  unit-string: "µg/mL"
  inequality-sign: ">"
  MIC: 1250
- molecule: "CCCCCCNC(=O)[C@@H](N)C(C)C"
  unit-string: "µg/mL"
  inequality-sign: "="
  MIC: 39
- molecule: "CC(C)[C@H](N)C(=O)Nc1ccc(F)cc1"
  unit-string: "µg/mL"
  inequality-sign: "="
  MIC: 312
- molecule: "C#Cc1ccc(NC(=O)[C@@H](N)C(C)CC)cc1 (stereo not given in full)"
  unit-string: "µg/mL"
  inequality-sign: "="
  MIC: 39

Every entry's value here was drawn from ChEMBL document CHEMBL5038623.
